System: HCT-15 colon
Experiment: NCI-60 one-dose screen, 48 h (100 = growth as untreated, 0 = no growth, -100 = all killed)
Conditions: 10 µM unless noted
Description: Growth inhibition of the HCT-15 human tumor cell line is measured as a screen for anti-cancer activity. Cells are grown in 96 well plates and exposed to the test compound for 48 hours. Compounds are tested at a single concentration, which is 10^-5 M for most compounds. The reported endpoint is percent growth (GI% or GIPRCNT), where numbers from 0 - 100% represent growth inhibition, and numbers from -100% - 0 represent cell death. For example, a value of 40 represents 60% growth inhibition. […]
This is part of a sample that, as a whole, favours compounds with a hit. Of some 83,000 tested, about 20% had one in any assay.
Everything with growth lower than 20% is NO; everything else, including exactly 20%, is YES.

Field: example entries. Status: answers known.
compound	measured target	label
O=C1Nc2ccccc2/C1=C\c1nc(-c2ccccc2F)n2ccccc12	HCT-15 colon	YES
Cc1cc2c(O)c(-c3cccc(Cl)c3)c3sc(=O)oc3c2cc1C	HCT-15 colon	YES
CNc1nc(S(=O)c2ccc(C#N)cc2)nc2ccccc12 (stereo unspecified)	HCT-15 colon	YES
COc1ccc2[nH]cc(-c3nc(-c4cn(C)c5c(Cl)nccc45)cs3)c2c1	HCT-15 colon	NO

Does CCOC(=O)C(=Cc1cccc(Br)c1)C(=O)OCC have a reported growth of at least 20%? NO

Confirm if growth reported for the compound O=Cc1ccc([N+](=O)[O-])s1 is 20% or above. YES

Quick check: does CC1=C(C(=O)OC(C)C)C(c2ccc3c(c2)OCO3)NC(=S)N1 (stereo unspecified) have growth greater than or equal to 20%? YES

Item CCOC(=O)c1cc2c(=O)oc3ccccc3c2oc1=O with growth of 20% or above? YES
